# subject_of_test: UniProt:P79350
# Sequence (P79350 whole entry): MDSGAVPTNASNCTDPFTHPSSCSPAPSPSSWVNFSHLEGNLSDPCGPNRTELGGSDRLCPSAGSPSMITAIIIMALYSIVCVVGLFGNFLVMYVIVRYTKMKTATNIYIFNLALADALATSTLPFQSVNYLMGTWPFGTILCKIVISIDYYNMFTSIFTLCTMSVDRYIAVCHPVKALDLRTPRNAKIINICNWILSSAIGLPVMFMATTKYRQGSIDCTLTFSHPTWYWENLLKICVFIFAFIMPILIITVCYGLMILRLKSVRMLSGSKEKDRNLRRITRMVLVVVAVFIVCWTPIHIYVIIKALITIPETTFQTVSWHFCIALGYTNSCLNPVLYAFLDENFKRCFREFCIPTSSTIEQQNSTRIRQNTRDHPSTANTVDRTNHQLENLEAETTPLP
observation_type: IC50 (nM)
Provide only the numeric value, understood in nM.

Consider the following illustrative entries.
{"columns": ["compound_smiles", "IC50, nM"],
 "data": [
  ["O=C(CSSCC(=O)N[C@@]12CCC(=O)[C@@H]3Oc4c(O)ccc5c4[C@@]31CCN(CC1CC1)[C@@H]2C5)N[C@@]12CCC(=O)[C@@H]3Oc4c(O)ccc5c4[C@@]31CCN(CC1CC1)[C@@H]2C5", 3.9],
  ["CN1CC[C@]23c4c5ccc(O)c4O[C@@]2(C)C(=O)CC[C@@]3(NC(=O)CSSCC(=O)N[C@@]23CCC(=O)[C@]4(C)Oc6c(O)ccc7c6[C@@]42CCN(C)C3C7)C1C5", 2.9]
]}

Specify IC50 for C[C@@]12Oc3c(O)ccc4c3[C@@]13CCN(CC1CC1)[C@H](C4)[C@]3(NC(=O)CSSCC(=O)N[C@@]13CCC(=O)[C@]4(C)Oc5c(O)ccc6c5[C@@]41CCN(CC1CC1)[C@@H]3C6)CCC2=O , system UniProt:P79350. 1.4
